experiment: Larvicidal activity against Aedes aegypti 4th instar larvae measured after 48 hrs; type: ADME
Assign labels as follows, please: satisfied for LC90 below 40 µg/mL; not satisfied for LC90 equal to or exceeding 40 µg/mL.

>  <compound>
CCOC(=O)/C=C/c1ccc(OC(F)(F)F)cc1

>  <discrete_label>
not satisfied

$$$$

Take the compound CCOC(=O)/C=C/c1ccc(Cl)cc1Cl [ETHYL 3-(2,4-DICHLOROPHENYL)ACRYLATE] and say whether its LC90 is less than 40 µg/mL. not satisfied

State whether 40 µg/mL exceeds LC90 recorded for O=C(O)/C=C/c1ccc(Cl)cc1 . not satisfied

In the record for CCOC(=O)/C=C/C=C/c1ccccc1 , is LC90 less than 40 µg/mL? satisfied

Please determine if CCOC(=O)/C=C/c1ccccc1 [ETHYL CINNAMATE] is below 40 µg/mL in terms of LC90. not satisfied

Please indicate whether the reported LC90 of O=C(O)/C=C/c1ccc([N+](=O)[O-])cc1 is strictly below 40 µg/mL. not satisfied

====

test: Larvicidal activity against Aedes aegypti 4th instar larvae measured after 48 hrs; format: ADME
// values below are reported LC90
Please state the figure in mg/L; there is no need to write the unit.

Solved entries:
>  <compound>
COP(=S)(OC)Oc1ccc(Sc2ccc(OP(=S)(OC)OC)cc2)cc1

>  <unit_annotation>
mg/L

>  <recorded_number>
10.4

$$$$
>  <compound>
CCOC(=O)/C=C/c1ccc([N+](=O)[O-])cc1

>  <unit_annotation>
mg/L

>  <recorded_number>
60

$$$$
>  <compound>
CCOC(=O)/C=C/c1ccc(C(F)(F)F)cc1

>  <unit_annotation>
mg/L

>  <recorded_number>
42.2

$$$$
>  <compound>
CCOC(=O)/C=C/c1ccc(Br)cc1

>  <unit_annotation>
mg/L

>  <recorded_number>
33.3

$$$$
>  <compound>
CCOC(=O)/C=C/c1ccc(Cl)cc1 [ETHYL 3-(4-CHLOROPHENYL)ACRYLATE]

>  <unit_annotation>
mg/L

>  <recorded_number>
19.7

$$$$
>  <compound>
CCOC(=O)/C=C/c1ccc(F)cc1

>  <unit_annotation>
mg/L

>  <recorded_number>
43.2

$$$$
>  <compound>
O=C(O)/C=C/c1ccc(C(F)(F)F)cc1

>  <unit_annotation>
mg/L

>  <recorded_number>
108.6

$$$$
>  <compound>
O=C(O)/C=C/c1ccc(Br)cc1

>  <unit_annotation>
mg/L

>  <recorded_number>
93.2

$$$$

// LC90 lookup, compound = CCOC(=O)/C=C/c1ccc(OC)cc1 [4-METHOXY ETHYL CINNAMATE] , result: 39.7

====

assay: Larvicidal activity against Aedes aegypti assessed as mortality at 45 ug/ml measured after 24 hrs relative to control; assay type: ADME; conditions: at 45 µg/mL
property_measured: mortality (%)
The reply should be a number in %, with the unit left off.

Known results for compounds:
>  <compound>
CCOC(=O)/C=C/c1ccccc1 [ETHYL CINNAMATE]

>  <property_measured>
mortality

>  <unit_annotation>
%

>  <recorded_number>
95

$$$$
>  <compound>
CCOC(=O)/C=C/c1ccc(C(F)(F)F)cc1

>  <property_measured>
mortality

>  <unit_annotation>
%

>  <recorded_number>
98.3

$$$$
>  <compound>
O=C(O)/C=C/c1ccc(C(F)(F)F)cc1

>  <property_measured>
mortality

>  <unit_annotation>
%

>  <recorded_number>
0

$$$$
>  <compound>
CCOC(=O)/C=C/C=C/c1ccccc1

>  <property_measured>
mortality

>  <unit_annotation>
%

>  <recorded_number>
93.3

$$$$
>  <compound>
CCOC(=O)/C=C/c1ccc(OC(F)(F)F)cc1

>  <property_measured>
mortality

>  <unit_annotation>
%

>  <recorded_number>
93.3

$$$$

Measured mortality of CCOC(=O)/C=C/c1ccc(F)cc1 : 83.3

Entry under test: CCOC(=O)/C=C/c1ccc(Br)cc1 . Its mortality was 100

Form: compound = CCOC(=O)/C=C/c1ccc(C#N)cc1 ; mortality = 8.3

In plain terms, CCOC(=O)/C=C/c1ccc(C(C)(C)C)cc1 has a documented mortality of 40

Form: compound = O=C(O)/C=C/c1ccccc1 [CINNAMIC ACID] ; mortality = 0

Entry under test: CCOC(=O)/C=C/c1ccc(Cl)cc1Cl [ETHYL 3-(2,4-DICHLOROPHENYL)ACRYLATE] . Its mortality was 86.7

mortality for CCOC(=O)/C=C/c1ccc(Cl)cc1 [ETHYL 3-(4-CHLOROPHENYL)ACRYLATE] is 100

====

test: Larvicidal activity against Aedes aegypti 4th instar larvae measured after 48 hrs; format: ADME
Some compounds, each annotated with its measured LC50.
Form entry: value (µg/mL) — number only.

>  <compound>
CCOC(=O)/C=C/c1ccc(Cl)cc1Cl [ETHYL 3-(2,4-DICHLOROPHENYL)ACRYLATE]

>  <unit_annotation>
µg/mL

>  <recorded_number>
23.6

$$$$

GET /value?item= CCOC(=O)/C=C/C=C/c1ccccc1 &field=LC50 returns 19.7

Quick note, LC50 for CCOC(=O)/C=C/c1ccc(Cl)cc1 [ETHYL 3-(4-CHLOROPHENYL)ACRYLATE] landed at 8.3

====

List of LC10 values.
assay: Larvicidal activity against Aedes aegypti 4th instar larvae measured after 48 hrs; assay type: ADME
Kindly format the answer as number then unit.

>  <molecule>
CCOC(=O)/C=C/c1ccc(Br)cc1

>  <LC10>
18.9 µg/mL

$$$$
>  <molecule>
CCOC(=O)/C=C/c1ccc([N+](=O)[O-])cc1

>  <LC10>
21.3 µg/mL

$$$$
>  <molecule>
CCOC(=O)/C=C/C=C/c1ccccc1

>  <LC10>
10 µg/mL

$$$$
>  <molecule>
COP(=S)(OC)Oc1ccc(Sc2ccc(OP(=S)(OC)OC)cc2)cc1 [TEMEFOS]

>  <LC10>
1.8 µg/mL

$$$$
>  <molecule>
CCOC(=O)/C=C/c1ccc(OC(F)(F)F)cc1

>  <LC10>
19.6 µg/mL

$$$$

LC10 reported for this molecule CCOC(=O)/C=C/c1ccc(Cl)cc1 [ETHYL 3-(4-CHLOROPHENYL)ACRYLATE] : 3.5 µg/mL

The reported LC10 of the molecule CCOC(=O)/C=C/c1ccccc1 [ETHYL CINNAMATE] was 30.4 µg/mL

Just so you know, measured LC10 for O=C(O)/C=C/c1ccc([N+](=O)[O-])cc1 came out at 29 µg/mL

So for CCOC(=O)/C=C/c1ccc(C(F)(F)F)cc1 , the logged LC10 turned out to be 11.1 µg/mL

# molecule O=C(O)/C=C/c1ccc(Br)cc1 ; its LC10 = 31.7 µg/mL

// O=C(O)/C=C/c1ccc(Cl)cc1 : LC10 value = 16.2 µg/mL

Measured LC10, CCOC(=O)/C=C/c1ccc(F)cc1 : 24 µg/mL

====

assay: Larvicidal activity against Aedes aegypti 4th instar larvae measured after 48 hrs; type: ADME
Would you mind classing the entries by LC50? Ranges: b0 (below 30 µg/mL), b1 (30 µg/mL to below 40 µg/mL), b2 (40 µg/mL or more)

Would you please look over these solved cases?
>  <molecule>
O=C(O)/C=C/c1ccc(Br)cc1

>  <discrete_label>
b2

$$$$
>  <molecule>
CCOC(=O)/C=C/c1ccc([N+](=O)[O-])cc1

>  <discrete_label>
b1

$$$$
>  <molecule>
O=C(O)/C=C/c1ccc([N+](=O)[O-])cc1

>  <discrete_label>
b1

$$$$
>  <molecule>
CCOC(=O)/C=C/c1ccc(OC(F)(F)F)cc1

>  <discrete_label>
b1

$$$$
>  <molecule>
CCOC(=O)/C=C/c1ccccc1 [ETHYL CINNAMATE]

>  <discrete_label>
b1

$$$$

Which LC50 category applies to CCOC(=O)/C=C/c1ccc(OC)cc1 [4-METHOXY ETHYL CINNAMATE] here? b0

Pick a category. Item: O=C(O)/C=C/c1ccc(C(F)(F)F)cc1 b2

====

assay: Larvicidal activity against Aedes aegypti assessed as mortality at 100 ug/ml measured after 24 hrs relative to control; format: ADME; settings: at 100 µg/mL
property_measured: mortality (%)
The reply should contain only the number, in %.

Solved cases below.
>  <chemical_string>
O=C(O)/C=C/c1ccc([N+](=O)[O-])cc1

>  <property_measured>
mortality

>  <unit_annotation>
%

>  <recorded_number>
96.7

$$$$
>  <chemical_string>
O=C(O)/C=C/c1ccc(C(F)(F)F)cc1

>  <property_measured>
mortality

>  <unit_annotation>
%

>  <recorded_number>
56.7

$$$$
>  <chemical_string>
O=C(O)/C=C/c1ccc(Cl)cc1

>  <property_measured>
mortality

>  <unit_annotation>
%

>  <recorded_number>
100

$$$$

--- query ---
# mortality of CCOC(=O)/C=C/c1ccc(N(C)C)cc1 = 6.7

Where these numbers come from: ChEMBL document CHEMBL4811316
